Ref: PubChem BioAssay

PROCEDURE_SUMMARY: Primary imaging screen for DUSP6 inhibitors that restore phospho-Erk in transfected HeLa cells, chemical complementation (AID 609)
TEST_CONTEXT: HeLa MKP-3 transfected, phospho-Erk imaging KS statistic; measured here: nuclear c-Myc green intensity z-score; at 10 µM
# thresholds on z-score define classes: range 1 = under -0.8, range 2 = from -0.8 up to 0.004, range 3 = 0.004 and over

COMPOUND: CNC(=O)N(C)c1nnc(C(C)(C)C)s1
ASSIGNED_CLASS: range 3

Next, consider the following compound.
query: Form field 'band' for `COc1ccc(Cc2nccc3cc(OC)c(OC)cc23)cc1OC`
result: range 2

====

Please provide measured NADPH fluorescence slope for the entries that follow.
TARGET_ENTITY: Voltage-gated potassium channel subunit beta-2 (Rattus norvegicus)
PROCEDURE_SUMMARY: enhancers of rat Kvbeta2 NADPH turnover – biochemical, NADPH fluorescence, primary screen (AID 623);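 also: fluorescence intensity change per second fitted from 20 to 320 s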
TEST_CONTEXT: Recombinant KvBeta, NADPH fluorescence decrease slope, 10 min; at 10 µM; stronger effect = lower value
One number for each entry.

Known results for molecules:
MOLECULE: c1ccc(C2CC3CC(c4ccco4)N2O3)cc1 (configuration not stated)
TARGET_ENTITY: Voltage-gated potassium channel subunit beta-2 (Rattus norvegicus)
NADPH fluorescence slope: -2.8e-05
--
MOLECULE: CCCCCCOc1ccc(CN2CCN(C)CC2)cc1
TARGET_ENTITY: Voltage-gated potassium channel subunit beta-2 (Rattus norvegicus)
NADPH fluorescence slope: -0.000138
--
MOLECULE: O=c1c2ccccc2nc(CSc2ncnc3nc[nH]c23)n1-c1ccccc1
TARGET_ENTITY: Voltage-gated potassium channel subunit beta-2 (Rattus norvegicus)
NADPH fluorescence slope: -9.1e-05
--
MOLECULE: CC1(C)CC(=O)C(C=NCCN2CCN(C(=O)Cc3ccc(F)cc3)CC2)=C(O)C1
TARGET_ENTITY: Voltage-gated potassium channel subunit beta-2 (Rattus norvegicus)
NADPH fluorescence slope: -3.6e-05
--
MOLECULE: CCC(COC(=O)c1cc(OC)c(OC)c(OC)c1)(c1ccccc1)N(C)C (configuration not stated)
TARGET_ENTITY: Voltage-gated potassium channel subunit beta-2 (Rattus norvegicus)
NADPH fluorescence slope: -7.2e-05
--
MOLECULE: CN1CCc2nc3sc(C#N)c(N)c3c(-c3cccs3)c2C1
TARGET_ENTITY: Voltage-gated potassium channel subunit beta-2 (Rattus norvegicus)
NADPH fluorescence slope: -6e-05
--
MOLECULE: CN1[C@@H]2CC[C@H]1CC(OC(=O)C1C=Nc3ccccc31)C2 (some centres not stated)
TARGET_ENTITY: Voltage-gated potassium channel subunit beta-2 (Rattus norvegicus)
NADPH fluorescence slope: -6.1e-05
--
MOLECULE: CCOc1ccc(Br)c(C2(O)CC(C)N(C)CC2C)c1 (configuration not stated)
TARGET_ENTITY: Voltage-gated potassium channel subunit beta-2 (Rattus norvegicus)
NADPH fluorescence slope: -8.9e-05
--
MOLECULE: Nc1ccc(C2(c3ccc(N)cc3)CN3CCC2CC3)cc1
TARGET_ENTITY: Voltage-gated potassium channel subunit beta-2 (Rattus norvegicus)
NADPH fluorescence slope: -3e-05
--
MOLECULE: Clc1ccc(CSC(Cn2ccnc2)c2ccc(Cl)cc2Cl)cc1 (configuration not stated)
TARGET_ENTITY: Voltage-gated potassium channel subunit beta-2 (Rattus norvegicus)
NADPH fluorescence slope: -3.2e-05

For each entry beneath this line, provide reported NADPH fluorescence slope.
1. c1ccc2c(c1)OCC(C1=NCCN1)O2 (configuration not stated)
2. O=c1[nH]c(=O)n(Cc2ccco2)c(O)c1C=NCc1ccc2c(c1)OCO2

result:
1: -0.000173; 2: -1.2e-06

====

Please provide measured inhibition of aggregation for the entries that follow.
PROCEDURE_SUMMARY: reduction of polyQ htt aggregates in cells – imaging, exon1htt(103Q)mCFP cells, high-content imaging, primary screen (AID 483);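 also: compound exposure lasted 3 days before fixation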
TEST_CONTEXT: exon1htt(103Q)mCFP cell line, aggregate imaging, at 2 µM; stronger effect = higher value
Give bare numbers, in %.

COMPOUND: Cc1cc(N2C(=O)C3CCCN3C2c2cccc(Cl)c2)no1 (stereo not drawn)
inhibition of aggregation, %: 8.2
--
COMPOUND: Cc1ccc(-c2nc(CS(=O)CC(=O)N3CCC4(CC3)OCCO4)c(C)o2)cc1 (stereo not drawn)
inhibition of aggregation, %: -2.4

For each entry beneath this line, provide reported inhibition of aggregation.
1. CCCCn1c(O)c(C=NC2CCCCC2N)c(=O)[nH]c1=O (stereo not drawn)
2. Cc1cccc(N2CCc3c2nc2ccccc2c3N)c1
3. CNCCc1c[nH]c2ccccc12
4. CC(=NCc1cccnc1)c1c(O)n(Cc2ccccc2)c(=O)[nH]c1=O
5. Cc1ccc(C2SCC(=O)Nc3c2c(=O)[nH]n3C2CCOC(C)(C)C2)cc1 (stereo not drawn)
6. CCCCn1c(O)c(C(C)=Nc2cccc(C(=O)O)c2)c(=O)[nH]c1=O

result:
1. 4.3
2. -7.8
3. 3.8
4. -11.9
5. -18.2
6. 4.7

For each entry beneath this line, provide reported inhibition of aggregation.
1. O=C(C(Cc1ccccc1)NS(=O)(=O)c1ccc(F)cc1)N1CCC2(CC1)OCCO2 (stereo not drawn)
2. O=C(c1ccncc1)C12CN3CN(CN(C3)C1)C2
3. O=C(CN1C2CCC1CC(O)(c1cccnc1)C2)Nc1ccc2c(c1)OCO2 (stereo not drawn)
4. CC(C)(C)P(=O)(c1ccncc1)N1CCCC1 (stereo not drawn)

result:
[-7, 15.7, -3.4, -2.3]

Consider `CN1CCC(OC(=O)C2c3ccccc3Oc3ccccc32)CC1` . Its measured inhibition of aggregation is -33.4

====

PROCEDURE_SUMMARY: loss of swimming-algae plug formation – whole organism, Chlamydomonas reinhardtii, WT vs cilia-less mutant, absorbance, 96-well, primary screen (AID 463189);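 also: 0% = wild type cc124 cells in DMSO and 100% = ciliumless bld1 mutant cells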
TEST_CONTEXT: Chlamydomonas reinhardtii gravitaxis, OD600 absorbance, 2 days; at 10 µM; stronger effect = higher value
QUANTITY_MEASURED: inhibition (%)
Give bare numbers, in %.

Known results for compounds:
COMPOUND: COc1ccc(C(=O)CC2C(=O)N(C)C(=O)N(C)C2=O)cc1
inhibition / %: 0.215
--
COMPOUND: CNCCc1nc(N)n[nH]1
inhibition / %: 24
--
COMPOUND: CCCCOCCCn1c(N)c(C(=O)OC(C)COC)c2nc3ccccc3nc21 (stereo unspecified)
inhibition / %: 21
--
COMPOUND: S=C(NC1CCCCC1)N1CCC(c2cnc[nH]2)CC1
inhibition / %: 12.6
--
COMPOUND: C=CCC1(CN2CCCCCC2=O)C(=O)NC(=O)NC1=O
inhibition / %: -7.71

Now for another entry.
Consider `C[C@@H]1O[C@H](C[N+](C)(C)C)C[C@H]1O` . Its measured inhibition is 3.38

====

PROCEDURE_SUMMARY: loss of swimming-algae plug formation – whole organism, Chlamydomonas reinhardtii, WT vs cilia-less mutant, absorbance, 96-well, primary screen (AID 463189);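 also: 0% = wild type cc124 cells in DMSO and 100% = ciliumless bld1 mutant cells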
TEST_CONTEXT: Chlamydomonas reinhardtii gravitaxis, OD600 absorbance, 2 days; at 10 µM; stronger effect = higher value
Please provide measured inhibition for the entries that follow.
Answers are plain numbers, in %.

For each entry beneath this line, provide reported inhibition.
1. COc1ccc2[nH]c3c(c2c1)CCNC3
2. c1ccc2nc(N3CCNCC3)ccc2c1
3. c1ccc2sc(C3(N4CCCCC4)CCCCC3)cc2c1
4. N#CC(C#N)=Cc1cc(O)c(O)c(O)c1
5. O=C(O)CC[N+](=O)[O-]
6. CCCCCCn1c(O)c(C=NC2CCN(Cc3ccccc3)CC2)c(=O)[nH]c1=O

result:
1. -4.14
2. 4.23
3. -0.941
4. 7.39
5. 2.51
6. 25.8

Consider `COc1ccccc1N1CCNCC1` . Its measured inhibition is 6.65

====

Please provide measured nuclei count for the entries that follow.
PROCEDURE_SUMMARY: endothelial E-selectin expression blockers – imaging, HUVEC, immunofluorescence, MLSMR starter and 10KST1 sets, primary screen (AID 487);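 also: 100% = median nuclei count of all wells on the same plate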
TEST_CONTEXT: HUVEC TNFalpha-induced E-selectin immunofluorescence imaging, at 2 µM; measured here: cell number, toxicity
One number for each entry, in %.

MOLECULE: COCCOC(=O)C1=C(N)Oc2c(c(=O)oc3ccccc23)[C@@]12C(=O)Nc1ccccc12
nuclei count, %: 105
//
MOLECULE: COc1cccc(-n2c(O)c(C=NCCN3CCOCC3)c(=O)[nH]c2=O)c1
nuclei count, %: 92.8
//
MOLECULE: CC(C)OC(=O)c1c(N)n(CC2CCCO2)c2nc3ccccc3nc12 (configuration not stated)
nuclei count, %: 191
//
MOLECULE: CSc1ccc(C(=O)C(C)(C)N2CCOCC2)cc1
nuclei count, %: 105
//
MOLECULE: c1ccc2c(c1)OCC(C1=NCCN1)O2 (configuration not stated)
nuclei count, %: 128

For each entry beneath this line, provide reported nuclei count.
1. CC1(C)CC(=O)C(C=NCCN2CCN(C(=O)Cc3ccc(F)cc3)CC2)=C(O)C1
2. CCC(=NCCCN1CCOCC1)c1c(O)n(Cc2ccccc2)c(=O)[nH]c1=O

result:
1: 140; 2: 167
